# target_of_assay: T1, Human CD137 ECD (human)
# T1 construct: also called 4-1BB
# assay: single mutant vs template dBBDu183H
measured_quantity: fold change of affinity (fold)

H183/L072 VH Y59I (antibody, name in Kabat numbering, V domains shown) VH: QVQLVESGGGLVQPGRSLRLSCAASGFTFSNAWMHWVRQAPGKGLEWVAQIKDKGNAYAAYIAPSVKGRFTISRDDSKNSIYLQMNSLKTEDTAVYYCHYVHYASASTVLPAFGVDAWGQGTTVTVSS VL: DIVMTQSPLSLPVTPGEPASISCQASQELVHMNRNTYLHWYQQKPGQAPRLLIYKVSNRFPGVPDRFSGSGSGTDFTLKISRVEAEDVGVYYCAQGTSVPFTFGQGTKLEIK = 0.7
H183/L072 VH Q50M (antibody, name in Kabat numbering, V domains shown) VH: QVQLVESGGGLVQPGRSLRLSCAASGFTFSNAWMHWVRQAPGKGLEWVAMIKDKGNAYAAYYAPSVKGRFTISRDDSKNSIYLQMNSLKTEDTAVYYCHYVHYASASTVLPAFGVDAWGQGTTVTVSS VL: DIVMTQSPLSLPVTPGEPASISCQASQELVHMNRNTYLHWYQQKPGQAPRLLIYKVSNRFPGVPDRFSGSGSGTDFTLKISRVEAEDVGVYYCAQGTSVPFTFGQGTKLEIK = 1.5
H183/L072 VH I51V (antibody, name in Kabat numbering, V domains shown) VH: QVQLVESGGGLVQPGRSLRLSCAASGFTFSNAWMHWVRQAPGKGLEWVAQVKDKGNAYAAYYAPSVKGRFTISRDDSKNSIYLQMNSLKTEDTAVYYCHYVHYASASTVLPAFGVDAWGQGTTVTVSS VL: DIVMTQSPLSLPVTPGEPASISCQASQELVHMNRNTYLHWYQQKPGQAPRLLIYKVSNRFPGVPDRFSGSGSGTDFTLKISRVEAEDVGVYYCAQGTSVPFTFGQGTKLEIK = 1
